From: PubChem BioAssay (NCI)

- Tested on: SK-MEL-28 melanoma
- procedure-summary: NCI tumour cell line growth inhibition, 48 h
Below, each entry is listed alongside its reported TGI.

| molecule | TGI |
| --- | --- |
| COc1ccc(CC(N)c2ccc(OC)cc2)cc1 (stereo not drawn) | > 100 µM |
| CCCCCCCC/C=C\CCCCCCC/C=C1\C[C@](/C=C/C(=O)OC)(CO)OC1=O | 3.38 µM |
| Cc1cc([N+](=O)[O-])c(NS(=O)(=O)c2cccc(C(=O)O)c2)cc1-c1cccnc1 | > 100 µM |
| CCOC(=O)/C(C1=NCCN1)=C(\O)c1ccccc1 | > 100 µM |
| O=C1NNC2(C(=O)N1)c1ccccc1-c1ccccc12 | > 10 µM |
| O=C(N/N=C/C=C/c1ccc([N+](=O)[O-])o1)c1cc2ccccc2cc1O | 2.4 µM |
| O=C1C(Nc2ccc(Cl)cc2)=C(I)C(=O)c2ncccc21 | 3.02 µM |
| COc1c(O)c(C=O)c2c(O)c(-c3c(C)cc4c(C(C)C)c(OC)c(O)c(C=O)c4c3O)c(C)cc2c1C(C)C | 22.7 µM |
| O=C(C/C(=N/O)C(=O)NC1=C(Cl)C(=O)c2ccccc2C1=O)CC(c1ccccc1)c1c(O)c2ccccc2oc1=O (stereo not drawn) | > 100 µM |
| C=C/C(C)=C\CC1[C@](C)(O)CC[C@H]2C(C)(C)C(=O)CC[C@]12C (stereo partly drawn) | > 100 µM |
| Cc1ccccc1C1OC(=O)c2ccc3ccccc3c21 (stereo not drawn) | 10.1 µM |
| CCOC(=O)CCC(NC(=O)OCc1ccccc1)C(=O)NC(CCC(=O)OCC)C(=O)NC(CCC(=O)OCC)C(=O)NC(CCC(=O)OCC)C(=O)NC(CCC(=O)OCC)C(=O)NC(CCC(=O)OCC)C(=O)NC(CCC(=O)OCC)C(=O)OCC (stereo not drawn) | > 100 µM |
| CC(C)CCCC(C)[C@H]1CCC2[C@@H]3CCC4Cc5nc6c(nc5C[C@]4(C)C3CC[C@@]21C)CC1CC[C@@H]2C(CC[C@@]3(C)C2CC[C@@H]3C(C)CCCC(C)C)[C@@]1(C)C6 (stereo partly drawn) | > 100 µM |
| O=C1C[C@@H](C(=O)OCc2ccccc2)NC(=O)C[C@@H](C(=O)OCc2ccccc2)NC(=O)C[C@@H](C(=O)OCc2ccccc2)N1 | > 100 µM |
| CCOC(=O)c1nc2ccc(C(F)(F)F)cc2nc1Oc1cc(OC)c(OC)c(OC)c1 | > 100 µM |
| CCCC(=O)NC(Nc1ccc(S(=O)(=O)Nc2cc(C)on2)cc1)(C(=O)OCC)C(F)(F)F (stereo not drawn) | > 100 µM |
| NNC(=O)C1CCC(=O)N1S(=O)(=O)c1ccccc1 (stereo not drawn) | > 100 µM |
| COc1ccc(CCN2CC=Cn3c2nc2ccccc2c3=O)cc1 | > 100 µM |

###

- System: MALME-3M melanoma
- procedure-summary: NCI tumour cell line growth inhibition, 48 h; in the data active means GI50 below about 0.43 µM; inactive means the rest
Classes used: 1.0 = active, 0.0 = inactive

| compound | tgt | label |
| --- | --- | --- |
| COc1ccc2c(c1)NC1=C(C(=O)OC1)C2c1cc(OC)c2c(c1)OCO2 (stereo not given) | MALME-3M melanoma | 0.0 |
| C=Cc1cncc(C#N)c1CCc1c(C#N)cncc1C=C | MALME-3M melanoma | 0.0 |
| COc1ccc(C/C(C)=C(/c2ccc(OCCN3CCCCC3)cc2)c2ccc(OC(=O)NCc3ccccc3)cc2)cc1 | MALME-3M melanoma | 1.0 |
| COc1cc(C(=O)c2c(-c3ccccc3)oc3c(OC)cccc23)cc(OC)c1OC | MALME-3M melanoma | 0.0 |
| Cc1cc([N+](=O)[O-])c(NS(=O)(=O)c2cccc(C(=O)O)c2)cc1-c1cccnc1 | MALME-3M melanoma | 0.0 |
| CN1CCN(C(=O)C(C)(C)c2ccc(C(=O)Nc3cn4cc(-c5ccncc5)ccc4n3)cc2)CC1 | MALME-3M melanoma | 1.0 |
| NCCCC[C@@H]1NC(=O)[C@H]2CCCN2C(=O)[C@H](Cc2ccccc2)CNC(=O)[C@H](Cc2ccccc2)NC1=O | MALME-3M melanoma | 0.0 |
| O=C(Nc1cccc(-n2cc(-c3ccncc3)c(-c3ccc(Cl)c(O)c3)n2)c1)Nc1cc(C(F)(F)F)cc(C(F)(F)F)c1 | MALME-3M melanoma | 0.0 |
| Cc1c(Cl)cccc1C(=O)Nc1nc2c(s1)CN(C(=O)c1ccc(C(F)(F)F)cc1)CC2 | MALME-3M melanoma | 0.0 |
